test system: Male ICR mice; assay: Antagonism of test compounds against general anesthesia induced by general anesthetics (total anesthesia time, loss to recovery of righting reflex); format: in vivo; settings: Remimazolam 57.34 mg/kg (1.5×ED50) i.v. tail vein induction, test compound 50 mg/kg in fat emulsion injected after 30 s loss of righting reflex
met means recorded The average of total anesthesia time is 0.9 min or above; not met means it is below 0.9 min.

For this compound, is measured The average of total anesthesia time 0.9 min or higher? CC1CCC(C(C)C)CC1=O (stereo not drawn) met

Could you please find out whether CC1C(=O)C2(C)CCC1(C)C2 (stereo not drawn) has The average of total anesthesia time that meets 0.9 min or exceeds it? met

Evaluate CC12CCC(CC1=O)C2(C)CC(=O)O (stereo not drawn) : The average of total anesthesia time at minimum 0.9 min? met

Could you verify whether the entry CC1(C)C2CC(=O)C1(C)C(Cl)C2 (stereo not drawn) shows The average of total anesthesia time of no less than 0.9 min? not met

Check this compound for The average of total anesthesia time at or above 0.9 min: CC1(C)[C@H]2CC[C@]1(C)C(=O)C2 not met

Reported The average of total anesthesia time at or above 0.9 min? CC12CCC(C(Cl)C1=O)C2(C)C (stereo not drawn) not met

// inclusive: The average of total anesthesia time at least 0.9 min? input: CC12CC(O)C(CC1=O)C2(C)C (stereo not drawn) met

Assess whether reported The average of total anesthesia time for CC12CCC(CC1=O)C2(C)CO (stereo not drawn) sits at 0.9 min or higher. met

Please indicate if the recorded The average of total anesthesia time for CC1C(=O)CC2(C(C)C)CC12 (stereo not drawn) meets or exceeds 0.9 min. not met

Form field: The average of total anesthesia time at least 0.9 min? Entry: CC12CCC(C(I)C1=O)C2(C)C (stereo not drawn) not met

Item CC1(C)C2CCC1(CCl)C(=O)C2 (stereo not drawn) with The average of total anesthesia time of 0.9 min or above? met

Is the recorded value of The average of total anesthesia time equal to or greater than 0.9 min for this compound? CC1CC2CC(=O)C1(C)C2(C)C (stereo not drawn) not met
